# System: SNB-19
# test: NCI tumour cell line growth inhibition, 48 h
Activity calls are given as the source filed them. Cut-off read from the data, not from the text of the source: active = GI50 up to about 1.1 µM and inactive = higher.
Classes used: active, inactive

- molecule: "COc1ccc2c(c1)N=C1CSC(c3c(Cl)cccc3[N+](=O)[O-])N1C2 (centres undefined)"
  assigned_label: "inactive"
- molecule: "CC1=C(Nc2c(C)cc(O)cc2O)C(=O)C=c2oc3c(c21)C(C)=C(Nc1c(C)cc(O)cc1O)C(=O)C=3"
  assigned_label: "inactive"
- molecule: "CCOC(=O)c1c(-c2ccc(OC)cc2)c(C#N)c(=S)n(C2OC(COC(C)=O)C(OC(C)=O)C(OC(C)=O)C2OC(C)=O)c1-c1ccccc1 (centres undefined)"
  assigned_label: "inactive"
- molecule: "CC1=NN(c2ccccc2)C(=O)C1/N=N/c1ccc(Br)cc1C (centres undefined)"
  assigned_label: "inactive"
- molecule: "COc1cc2cc(C(=O)N3CC(COS(C)(=O)=O)c4c3cc(N)c3ccccc43)[nH]c2c(OC)c1OC (centres undefined)"
  assigned_label: "active"
- molecule: "O=c1oc2ccccc2[n+]([O-])c1-c1ccccc1"
  assigned_label: "inactive"
- molecule: "c1ccc2c3c([nH]c2c1)C1C2CCCCN2C(c2ccncc2)N1CC3 (centres undefined)"
  assigned_label: "inactive"
- molecule: "COc1ccc(/C=C2\\C(=O)Nc3ccccc32)cc1OC"
  assigned_label: "inactive"
- molecule: "COC(=O)NCCc1n[nH]c2c1C(=O)C=C(Nc1ccccc1)C2=O"
  assigned_label: "inactive"

----------
# System: HCT-116
# test: NCI tumour cell line growth inhibition, 48 h
The source made the active and inactive calls. Cut-off read from the data, not from the text of the source: active = GI50 up to about 1.1 µM and inactive = higher.
GI50 values for the compounds below.

- compound: "C=CCC12CCC(=O)[C@@]1(C)CC=C(O)C2=O (stereo partly specified)"
  GI50: "> 100 µM (inactive)"
- compound: "O=C1c2cc([N+](=O)[O-])sc2C(=O)c2c([N+](=O)[O-])csc21"
  GI50: "0.456 µM (active)"
- compound: "COc1ccccc1C(=O)c1c(NCc2ccccc2)c(=O)c1=O"
  GI50: "> 100 µM (inactive)"
- compound: "CCN(CC)CCC(=O)N1CCc2c([nH]c3ccccc23)C1c1cccnc1 (stereo unspecified)"
  GI50: "> 100 µM (inactive)"
- compound: "CC[C@]1(O)C(=O)OCc2c1cc1n(c2=O)Cc2cc3c(N)cccc3nc2-1"
  GI50: "> 100 µM (inactive)"
- compound: "COc1cc(C2C(Cl)C(=O)N2c2ccc(Br)cc2)cc(I)c1O (stereo unspecified)"
  GI50: "40.3 µM (inactive)"
- compound: "NNC(=O)CC(=O)Nc1ccccc1Cl"
  GI50: "> 100 µM (inactive)"
- compound: "COc1cc2c(cc1O)-c1c(OC)c(O)cc3c1C(C2)N(C)CC3 (stereo unspecified)"
  GI50: "> 100 µM (inactive)"
- compound: "N#Cc1c2ccc([N+](=O)[O-])cc2c(=O)n2c1sc1ccc(C(F)(F)F)cc12"
  GI50: "> 100 µM (inactive)"
- compound: "CC1N(O)C(c2ccccc2)C(c2ccccc2)=[N+]1[O-] (stereo unspecified)"
  GI50: "> 100 µM (inactive)"
- compound: "O=[N+]([O-])c1ccc(Cl)c(C2CC(c3cccc4ccccc34)=Nc3ccccc3S2)c1 (stereo unspecified)"
  GI50: "6.68 µM (inactive)"
- compound: "CC(C)(Cl)C(Br)CC/C(=C/CBr)CBr.CC(C)(Cl)C(Br)CC/C(=C\\CBr)CBr (stereo unspecified)"
  GI50: "1.79 µM (inactive)"
- compound: "Cn1c2ccccc2c2cc(N3CCCC3)c3c(c21)C(=O)N(c1ccccc1)C3=O"
  GI50: "> 100 µM (inactive)"
- compound: "CCOP(=O)(OCC)/C(=C/c1ccccc1)CC(C)=O"
  GI50: "> 100 µM (inactive)"
- compound: "O=C=NCCCCCCN1C(=O)N2C(c3ccccc3)N(CCCCCCN=C=O)C(=O)N2C1c1ccccc1 (stereo unspecified)"
  GI50: "> 100 µM (inactive)"
- compound: "COC1=CC(=O)C[C@@H](C)[C@]12Oc1c(Cl)c(OC)cc(OC)c1C2=O"
  GI50: "11.8 µM (inactive)"
- compound: "CCN(CC)CC1CCCCN1CC(=O)N1c2ccccc2NC(=O)c2ccccc21 (stereo unspecified)"
  GI50: "> 100 µM (inactive)"
- compound: "Nc1ncnc2c1ccn2C/C=C/CO"
  GI50: "> 100 µM (inactive)"
- compound: "NC(Cc1cc(Br)c(O)c(Br)c1)C(=O)O (stereo unspecified)"
  GI50: "> 100 µM (inactive)"
- compound: "c1ccc(COC2NCCN2Cc2ccccc2)cc1 (stereo unspecified)"
  GI50: "> 100 µM (inactive)"
- compound: "O=c1nc(NC2CCCCO2)ccn1CCO (stereo unspecified)"
  GI50: "> 100 µM (inactive)"
- compound: "O=C(CC(=O)n1nc(-c2ccccc2)c(/N=N/c2ccc([N+](=O)[O-])cc2)c1-c1ccccc1)Nc1ccc(Cl)cc1"
  GI50: "12.9 µM (inactive)"
- compound: "CNC(=O)C(C)NC(=O)C(Cc1ccccc1)NC(=O)c1ccccc1 (stereo unspecified)"
  GI50: "> 100 µM (inactive)"
- compound: "CC1C(=O)N=C2C(=CN(Cc3ccccc3)c3ccccc32)C(=O)N1C (stereo unspecified)"
  GI50: "> 100 µM (inactive)"
- compound: "CN1CN(c2ccccc2)C2(CCN(CCCSc3ccccc3NC(=O)/C=C/c3ccccc3)CC2)C1=O"
  GI50: "2.5 µM (inactive)"
- compound: "CCOC(=O)/C=C/CC(C)(C)CCOC(C)=O"
  GI50: "> 10 µM (inactive)"
- compound: "Cc1cc(=O)c2c([nH]1)NS(=O)(=O)NC2=O"
  GI50: "> 100 µM (inactive)"
- compound: "COc1cc(Cl)c(CC(=O)c2c[nH]c3ccccc23)cc1OC"
  GI50: "98.6 µM (inactive)"
- compound: "O=c1[nH]c2[nH]c(-c3ccc(Br)cc3)cc2c2ccccc12"
  GI50: "43.2 µM (inactive)"
- compound: "COc1cc2c(c(O)c1O)-c1ccc(OC)c(=O)cc1C(NC(C)=O)CC2 (stereo unspecified)"
  GI50: "5.57 µM (inactive)"
- compound: "Cc1ccc(-c2sc(-c3ccc(C)cc3)c3c2C2CCC3C2)cc1"
  GI50: "> 50 µM (inactive)"
- compound: "COC1=C(C)C(=O)c2c(c(COC(N)=O)c3n2CC(OC(C)=O)C3OC(C)=O)C1=O (stereo unspecified)"
  GI50: "0.0204 µM (active)"
- compound: "COc1ccc(C=C2C(=O)NC(=S)NC2=O)c2ccccc12"
  GI50: "40 µM (inactive)"
- compound: "CC1CC2=C(S(=O)(=O)c3ccccc3)CC(S(=O)(=O)c3ccccc3)(S(=O)(=O)c3ccccc3)CC21 (stereo unspecified)"
  GI50: "21.9 µM (inactive)"
- compound: "CCON=C1C(C)(C)C(C)(C)C(C)(C)C1(C)C"
  GI50: "> 100 µM (inactive)"
- compound: "CCCCCCCC(=O)NC(C)(C)C(=O)NCC(=O)NC(CC(C)C)C(=O)NC(C)(C)C(=O)NCC(=O)NCC(=O)NC(CC(C)C)C(=O)NC(C)(C)C(=O)NCC(=O)NC(C(=O)NC(CO)CC(C)C)C(C)CC (stereo unspecified)"
  GI50: "3.78 µM (inactive)"
- compound: "COC1=CC(=O)C2(C=C1OC)OC[C@H]1Oc3c(ccc4c3C=CC(C)(C)O4)C(=O)[C@H]12 (stereo partly specified)"
  GI50: "28.4 µM (inactive)"
- compound: "Cc1cc(=O)oc2cc(OS(C)(=O)=O)ccc12"
  GI50: "> 100 µM (inactive)"
- compound: "CC(CSc1nc2c(c(=N)n1-c1ccccc1)c(=S)n(-c1ccccc1)c(=S)n2-c1ccccc1)CN(C)C (stereo unspecified)"
  GI50: "1.67 µM (inactive)"
- compound: "CCCNC(=S)N/C=C1\\C(=O)Nc2ccccc2C1=O"
  GI50: "> 100 µM (inactive)"
- compound: "COc1cccc(/C=C/C2=NN(c3cccc(S(=O)(=O)O)c3)C3(C2)SCC(=O)N3c2nc3ccccc3s2)c1 (stereo unspecified)"
  GI50: "62.7 µM (inactive)"
